experimentDescription: MTS cell viability assay, normal colon cells
Format: cell-based
conditionContext: human, CCD18 Co normal colon cells; at 60 μM, CCD18 Co; read-out: impact on cell viability
readout: viability at 24 h, 60 µM

Could you tell me which viability at 24 h, 60 µM is on file for CC(C)(O)CCCC1(C)CC(=O)c2cc(O)c(Br)cc2O1 (stereo not shown) [PBQ1, 7-Hydroxycymopochromanone] ?
< 10%

====

system: CYP1A2 (Homo sapiens, UniProt P05177)
Sequence (P05177 whole entry): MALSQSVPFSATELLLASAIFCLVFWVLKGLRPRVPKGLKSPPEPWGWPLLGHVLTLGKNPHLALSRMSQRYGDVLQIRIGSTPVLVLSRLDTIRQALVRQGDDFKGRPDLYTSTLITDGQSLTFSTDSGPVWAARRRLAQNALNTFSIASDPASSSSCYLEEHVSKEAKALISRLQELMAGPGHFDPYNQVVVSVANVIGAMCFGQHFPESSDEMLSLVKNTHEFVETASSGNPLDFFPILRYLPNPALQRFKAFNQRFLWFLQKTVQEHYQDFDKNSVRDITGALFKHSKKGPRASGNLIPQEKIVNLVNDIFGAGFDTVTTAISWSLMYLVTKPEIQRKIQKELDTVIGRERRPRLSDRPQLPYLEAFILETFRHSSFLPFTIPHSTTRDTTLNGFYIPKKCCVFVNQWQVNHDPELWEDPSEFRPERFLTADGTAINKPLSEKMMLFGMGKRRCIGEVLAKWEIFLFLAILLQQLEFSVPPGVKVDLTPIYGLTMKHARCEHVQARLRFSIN
readout: Ki (µM)
API: value field is a number in µM; no unit string.

Could you tell me which Ki is on file for CC(C)(O)CCCC1(C)CC(=O)c2cc(O)c(Br)cc2O1 (stereo not shown) [PBQ1, 7-Hydroxycymopochromanone] ?
9.16

====

experimentDescription: MTS cell viability assay, colon cancer cells
Type: cell-based
conditionContext: human, HT29 colon cancer cells; at 60 μM, HT29; read-out: impact on cell viability
readout: viability at 24 h, 60 µM

Could you tell me which viability at 24 h, 60 µM is on file for CC(C)(O)CCCC1(C)CC(=O)c2cc(O)c(Br)cc2O1 (stereo not shown) [PBQ1, 7-Hydroxycymopochromanone] ?
< 10%

====

system: UniProt P10635
Sequence (P10635 whole entry): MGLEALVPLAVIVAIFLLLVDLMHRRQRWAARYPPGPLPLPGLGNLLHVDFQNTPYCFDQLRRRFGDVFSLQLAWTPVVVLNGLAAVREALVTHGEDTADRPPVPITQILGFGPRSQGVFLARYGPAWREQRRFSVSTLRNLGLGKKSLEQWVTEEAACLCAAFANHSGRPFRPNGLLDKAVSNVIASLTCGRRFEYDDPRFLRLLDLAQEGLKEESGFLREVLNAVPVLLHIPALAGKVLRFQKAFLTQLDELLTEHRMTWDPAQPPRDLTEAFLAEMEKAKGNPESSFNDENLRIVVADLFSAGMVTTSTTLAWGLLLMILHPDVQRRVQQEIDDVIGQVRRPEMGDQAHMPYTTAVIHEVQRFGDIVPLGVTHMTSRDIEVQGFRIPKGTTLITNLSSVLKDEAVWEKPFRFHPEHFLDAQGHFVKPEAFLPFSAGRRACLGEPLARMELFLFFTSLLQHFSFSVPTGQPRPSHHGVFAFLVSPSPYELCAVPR
experimentDescription: in vitro
conditionContext: recombinant CYP2D6
readout: IC50 (nM)
API: value field is a number in nM; no unit string.

Could you tell me which IC50 is on file for CC(C)(O)CCCC1(C)CC(=O)c2cc(O)c(Br)cc2O1 (stereo not shown) [PBQ1, 7-Hydroxycymopochromanone] ?
1030

====

system: UniProt Q16678
experimentDescription: Fluorometric CYP inhibition assay, ERes dealkylation
Type: biochemical
conditionContext: human
readout: IC50 (nM)
API: value field is a number in nM; no unit string.

Could you tell me which IC50 is on file for CC(C)(O)CCCC1(C)CC(=O)c2cc(O)c(Br)cc2O1 (stereo not shown) [PBQ1, 7-Hydroxycymopochromanone] ?
1420

====

The compounds listed here are annotated with their Ki.
system: CYP1B1 (Homo sapiens)
Sequence (Q16678 whole entry): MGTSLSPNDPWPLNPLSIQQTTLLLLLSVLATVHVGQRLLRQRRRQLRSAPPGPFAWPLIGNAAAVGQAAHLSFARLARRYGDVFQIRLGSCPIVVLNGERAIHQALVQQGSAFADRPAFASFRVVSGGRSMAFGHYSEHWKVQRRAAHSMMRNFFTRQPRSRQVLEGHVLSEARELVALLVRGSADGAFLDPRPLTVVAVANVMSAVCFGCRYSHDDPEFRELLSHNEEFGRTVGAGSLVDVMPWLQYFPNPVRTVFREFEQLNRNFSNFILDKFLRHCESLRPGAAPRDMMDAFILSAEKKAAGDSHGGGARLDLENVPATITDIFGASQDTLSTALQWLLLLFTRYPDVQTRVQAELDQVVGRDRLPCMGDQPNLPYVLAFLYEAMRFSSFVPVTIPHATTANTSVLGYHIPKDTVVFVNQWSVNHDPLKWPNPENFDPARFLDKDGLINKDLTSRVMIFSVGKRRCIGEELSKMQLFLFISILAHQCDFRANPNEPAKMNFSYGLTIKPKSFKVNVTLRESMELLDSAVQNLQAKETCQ
experimentDescription: Fluorometric CYP inhibition assay, ERes dealkylation
Assay type: biochemical
conditionContext: apparent Ki, ERes dealkylation
API: value field is a number in nM; no unit string.

compound	measuredResult
C/C(=C\C(=O)c1cc(O)c(Br)cc1O)CCCC(C)(C)O [PBQ2, 7-hydroxycymopolone]	4.7

Please turn your attention to the following entry.
Could you tell me which Ki is on file for CC(C)(O)CCCC1(C)CC(=O)c2cc(O)c(Br)cc2O1 (centres unmarked) [PBQ1, 7-Hydroxycymopochromanone] ?
260

====

Tested on: CCD18 Co cells
experimentDescription: MTS cell viability assay, normal colon cells
Assay type: cell-based
conditionContext: Homo sapiens, CCD-18Co; normal colon cell line, 24 h exposure, MTS
readout: pIC50
In plain terms, pIC50 is the concentration in mol/L turned into minus its base-10 logarithm.

compound	pIC50
O=c1[nH]cc(F)c(=O)[nH]1 [Fluorouracil, fluorouracil, reference compound]	4.26

Please turn your attention to the following entry.
Could you tell me which pIC50 is on file for C/C(=C\C(=O)c1cc(O)c(Br)cc1O)CCCC(C)(C)O [PBQ2, 7-hydroxycymopolone] ?
4.25

====

system: CYP1A2 (Homo sapiens, UniProt P05177)
experimentDescription: Fluorometric CYP inhibition assay, CEC dealkylation
Format: biochemical
conditionContext: recombinant CYP1A2, CEC 5 μM
readout: IC50 (µM)
API: value field is a number in µM; no unit string.

# query: IC50 | item C/C(=C\C(=O)c1cc(O)c(Br)cc1O)CCCC(C)(C)O [PBQ2, 7-hydroxycymopolone] | system: CYP1A2 (Homo sapiens, UniProt P05177)
10.6

====

system: CYP2C19 (Homo sapiens, UniProt P33261)
Sequence (P33261 whole entry): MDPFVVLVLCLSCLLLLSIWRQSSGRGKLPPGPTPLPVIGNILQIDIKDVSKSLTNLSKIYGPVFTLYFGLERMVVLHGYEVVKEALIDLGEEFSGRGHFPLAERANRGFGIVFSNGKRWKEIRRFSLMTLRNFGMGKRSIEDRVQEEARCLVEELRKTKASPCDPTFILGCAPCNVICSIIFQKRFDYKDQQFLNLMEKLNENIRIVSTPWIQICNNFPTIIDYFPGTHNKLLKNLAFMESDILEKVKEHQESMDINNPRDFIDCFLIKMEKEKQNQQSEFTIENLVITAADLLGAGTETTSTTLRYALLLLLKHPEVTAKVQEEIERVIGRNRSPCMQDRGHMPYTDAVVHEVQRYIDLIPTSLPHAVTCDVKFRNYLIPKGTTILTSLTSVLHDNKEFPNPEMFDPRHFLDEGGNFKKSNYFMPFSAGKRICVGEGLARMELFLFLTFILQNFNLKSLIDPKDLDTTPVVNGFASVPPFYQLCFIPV
experimentDescription: Fluorometric CYP inhibition assay, CEC dealkylation
Format: in vitro ADME
conditionContext: recombinant CYP2C19, CEC 25 μM
readout: IC50 (nM)
API: value field is a number in nM; no unit string.

compound	IC50, nM
C/C(=C\C(=O)c1cc(O)c(Br)cc1O)CCCC(C)(C)O [PBQ2, 7-hydroxycymopolone]	120

Please turn your attention to the following entry.
Could you tell me which IC50 is on file for CCC1(c2ccccc2)C(=O)NC(=O)N(Cc2ccccc2)C1=O (single isomer, unassigned; (-)) [(−)-N-3-Benzyl-phenobarbital, reference compound] ?
300

====

experimentDescription: MTS cell viability assay, breast cancer cells
Assay type: cell-based
conditionContext: human, MCF-7 breast cancer cells; at 60 μM, MCF-7; read-out: impact on cell viability
readout: viability at 24 h, 60 µM

Could you tell me which viability at 24 h, 60 µM is on file for CC(C)(O)CCCC1(C)CC(=O)c2cc(O)c(Br)cc2O1 (stereo not shown) [PBQ1, 7-Hydroxycymopochromanone] ?
< 10%

====

system: CYP3A4 (Homo sapiens)
Sequence (P08684 whole entry): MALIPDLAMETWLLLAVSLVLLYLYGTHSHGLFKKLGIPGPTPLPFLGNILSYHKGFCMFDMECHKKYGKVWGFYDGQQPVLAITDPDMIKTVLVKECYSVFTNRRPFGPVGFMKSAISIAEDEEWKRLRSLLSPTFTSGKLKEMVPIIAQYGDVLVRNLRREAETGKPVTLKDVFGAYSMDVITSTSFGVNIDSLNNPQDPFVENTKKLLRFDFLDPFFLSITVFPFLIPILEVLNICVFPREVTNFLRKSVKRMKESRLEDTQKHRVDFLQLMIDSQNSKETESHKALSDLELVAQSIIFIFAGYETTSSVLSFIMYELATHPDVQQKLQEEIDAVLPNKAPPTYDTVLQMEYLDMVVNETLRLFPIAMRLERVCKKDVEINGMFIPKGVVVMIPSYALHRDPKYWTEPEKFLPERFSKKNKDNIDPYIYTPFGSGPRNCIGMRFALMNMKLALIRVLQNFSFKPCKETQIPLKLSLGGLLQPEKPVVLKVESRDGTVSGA
experimentDescription: Fluorometric CYP inhibition assay, BFC debenzylation
Type: in vitro ADME
conditionContext: recombinant CYP3A4, BFC 50 μM; read-out: IC50 CYP3A4
readout: IC50 (µM)
API: value field is a number in µM; no unit string.

Could you tell me which IC50 is on file for C/C(=C\C(=O)c1cc(O)c(Br)cc1O)CCCC(C)(C)O [PBQ2, 7-hydroxycymopolone] ?
8.31

====

experimentDescription: MTS cell viability assay, liver cancer cells
Format: cell-based
conditionContext: human, HepG2 liver cancer cells; at 60 μM, HepG2; read-out: impact on cell viability
readout: viability at 24 h, 60 µM

Could you tell me which viability at 24 h, 60 µM is on file for CC(C)(O)CCCC1(C)CC(=O)c2cc(O)c(Br)cc2O1 (stereo not shown) [PBQ1, 7-Hydroxycymopochromanone] ?
< 10%
